target.of.assay: CRF1 (Homo sapiens)
Construct: endogenously expresses functional CRF1; endogenous in cells
Sequence (P34998 24-415): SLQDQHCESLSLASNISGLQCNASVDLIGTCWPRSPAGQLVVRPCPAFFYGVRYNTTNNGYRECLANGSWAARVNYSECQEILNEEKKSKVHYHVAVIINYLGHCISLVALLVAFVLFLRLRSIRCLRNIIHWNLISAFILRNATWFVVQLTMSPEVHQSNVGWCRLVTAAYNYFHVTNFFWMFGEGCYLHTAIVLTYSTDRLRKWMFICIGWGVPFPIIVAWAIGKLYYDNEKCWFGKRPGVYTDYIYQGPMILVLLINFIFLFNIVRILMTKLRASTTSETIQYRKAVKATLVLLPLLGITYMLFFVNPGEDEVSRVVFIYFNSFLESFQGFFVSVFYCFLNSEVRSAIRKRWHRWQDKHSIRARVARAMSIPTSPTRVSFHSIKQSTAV
assay.summary: CRF1 assessment of cAMP (HTRF cAMP assay) in Y-79 cells, antagonist mode
assay.conditions: CRF1 cAMP screening, Y79 cells, against agonist
Where a SMILES comes first, the peptide text is derived from it. The star is where a group is joined. Palmitoyl = CCCCCCCCCCCCCCCC(=O)*
readout.name: IC50

Study these solved cases before continuing.
compound	result
CCCCCCCCCCCCCCCC(=O)N[C@H](C(=O)N[C@@H](CC(=O)O)C(=O)N[C@@H](CCCNC(=N)N)C(=O)N[C@@H](CC(C)C)C(=O)N[C@@H](CCCNC(=N)N)C(=O)N[C@@H](CCCCN)C(=O)N[C@@H](Cc1c[nH]c2ccccc12)C(=O)N[C@@H](CCSC)C(=O)N[C@@H](C)C(=O)N[C@H](C(N)=O)[C@@H](C)CC)[C@@H](C)O [Compound 43] (Palmitoyl-TDRLRKWMAI-NH2)	> 10 µM
CCCCCCCCCCCCCCCC(=O)N[C@@H](CC(=O)O)C(=O)N[C@@H](CCCNC(=N)N)C(=O)N[C@@H](CC(C)C)C(=O)N[C@@H](CCCNC(=N)N)C(=O)N[C@@H](CCCCN)C(=O)N[C@@H](Cc1c[nH]c2ccccc12)C(=O)N[C@@H](CCSC)C(=O)N[C@@H](C)C(=O)N[C@H](C(N)=O)[C@@H](C)CC [Compound 42] (Palmitoyl-DRLRKWMAI-NH2)	5 to 10 µM

We next turn to a different compound, shown below.
Fill in IC50 for record CCCCCCCCCCCCCCCC(=O)N[C@@H](CCCNC(=N)N)C(=O)N[C@@H](CC(C)C)C(=O)N[C@@H](CCCNC(=N)N)C(=O)N[C@@H](CCCCN)C(=O)N[C@@H](Cc1c[nH]c2ccccc12)C(=O)N[C@@H](CCSC)C(=O)N[C@@H](Cc1ccccc1)C(=O)N[C@H](C(N)=O)[C@@H](C)CC [Compound 30] (Palmitoyl-RLRKWMFI-NH2)
1 to 5 µM
